Consider the following molecules; for each one, report its cell number.
System: HCC1569
experimental details: cell number relative to DMSO (% of DMSO); higher = more cells (less growth inhibition / toxicity)
condition description: concentration: 10 µM; 24 h

// map CCOC(=O)C1OC1C(=O)NC(CC(C)C)C(=O)NCCC(C)C (stereo unspecified) to recorded cell number (system: HCC1569)
100

// map C[n+]1ccccc1CC(=O)c1ccc(Br)cc1.[I-] [2-[2-(4-bromophenyl)-2-oxoethyl]-1-methylpyridinium iodide] to recorded cell number (system: HCC1569)
98.7

// map O=C1CC(c2ccccc2)Oc2cc(O)cc(O)c21 (stereo unspecified) [Pinocembrin] to recorded cell number (system: HCC1569)
106

// map CC1(COc2ccc(CC3SC(=O)NC3=O)cc2)CCCCC1 (stereo unspecified) [Ciglitazone] to recorded cell number (system: HCC1569)
99.8

// map CCCS(=O)(=O)Nc1ccc(F)c(C(=O)c2c[nH]c3ncc(Cl)cc23)c1F to recorded cell number (system: HCC1569)
96.8

// map Cl.Cl.NCCc1cnc[nH]1 [Histamine dihydrochloride] to recorded cell number (system: HCC1569)
99.6

// map COC(=O)NC(C(=O)NC(Cc1ccccc1)C(O)CN(Cc1ccc(-c2ccccn2)cc1)NC(=O)C(NC(=O)OC)C(C)(C)C)C(C)(C)C (stereo unspecified) [Atazanavir] to recorded cell number (system: HCC1569)
92.7

// map CCOC(=O)c1c(C)[nH]c(C=C2C(=O)Nc3ccccc32)c1C [VEGF Receptor 2 Kinase Inhibitor I] to recorded cell number (system: HCC1569)
100

// map COc1ccc(C2CC(=O)c3c(O)cc(OC4OC(CO)C(O)C(O)C4OC4OC(C)C(O)C(O)C4O)cc3O2)cc1O (stereo unspecified) [Neohesperidin] to recorded cell number (system: HCC1569)
99.8

// map Cl.Fc1ccc(C(OCCCc2cnc[nH]2)c2ccc(F)cc2)cc1 to recorded cell number (system: HCC1569)
99.8

// map COC(=O)/C=C/c1cccc(N(Cc2ccc(-c3ccc(N(C)C)cc3)cc2)C(=O)C2CCCCC2)c1 to recorded cell number (system: HCC1569)
91.5

// map COCC(=O)OC1(CCN(C)CCCc2nc3ccccc3[nH]2)CCc2cc(F)ccc2C1C(C)C.Cl.Cl (stereo unspecified) [Mibefradil dihydrochloride] to recorded cell number (system: HCC1569)
84.2

// map NC(=O)c1ccc2[nH]ccc2c1 to recorded cell number (system: HCC1569)
108

// map COc1ccc2cc1Oc1ccc(cc1)CC1c3c(cc4c(c3Oc3cc5c(cc3OC)CCN(C)C5C2)OCO4)CCN1C (stereo unspecified) [Cepharanthine] to recorded cell number (system: HCC1569)
95.3

// map CCCn1c(=O)c2[nH]c(-c3ccc(OCC(=O)Nc4ccc(C#N)cc4)cc3)nc2n(CCC)c1=O to recorded cell number (system: HCC1569)
105

// map CC(=O)OCC1(O)CC23CCC4c5ccoc5C=CC4(C)C2CCC1C3 (stereo unspecified) [Kahweol Acetate] to recorded cell number (system: HCC1569)
103

* * *

System: TDF
experimental details: H1.0 immunofluorescence intensity relative to DMSO (% of DMSO); higher = stronger H1.0 induction, active = 120 or more
condition description: concentration: 10 µM; 24 h
property name: H1.0 immunofluorescence intensity
Reply briefly: the number, and no unit.

I'd like to know its H1.0 immunofluorescence intensity. The compound in question is CN1C(CC(=O)c2ccccc2)CCCC1CC(O)c1ccccc1.Cl (stereo not drawn) [alpha-Lobeline hydrochloride]
93.7

I'd like to know its H1.0 immunofluorescence intensity. The compound in question is O=C(NCc1ccc2c(c1)OCO2)c1c(Cl)cccc1Cl [N-(1,3-benzodioxol-5-ylmethyl)-2,6-dichlorobenzamide]
97

I'd like to know its H1.0 immunofluorescence intensity. The compound in question is CC1CNc2c(cccc2S(=O)(=O)N[C@@H](CCCN=C(N)N)C(=O)N2CC[C@@H](C)C[C@@H]2C(=O)O)C1.O (some centres undefined)
89.5

I'd like to know its H1.0 immunofluorescence intensity. The compound in question is C=CCN1CCc2cc(O)c(O)cc2C(c2ccccc2)C1 (racemic)
90.9

* * *

Consider the following molecules; for each one, report its cell number.
System: HCC1569
experimental details: cell number relative to DMSO (% of DMSO); higher = more cells (less growth inhibition / toxicity)
condition description: concentration: 10 µM; 24 h
Reply briefly: the number, and no unit.

I'd like to know its cell number. The molecule in question is CCCCCCC=CCCCCCCCCC(=O)O [10(Z)-Heptadecenoic acid]
99.6

I'd like to know its cell number. The molecule in question is CCN1CCN(C(=O)NC(C(=O)NC2C(=O)N3C(C(=O)O)=C(CSc4nnnn4C)CSC23)c2ccc(O)cc2)C(=O)C1=O (centres undefined)
100

I'd like to know its cell number. The molecule in question is Cc1ccccc1C(OCCN(C)C)c1ccccc1.O=C(O)CC(O)(CC(=O)O)C(=O)O (centres undefined) [Orphenadrine citrate]
111

I'd like to know its cell number. The molecule in question is NC(=NCc1ccccc1)NC(=O)c1nc(Cl)c(N)nc1N
99.9

* * *

System: HCC1569
experimental details: cell number relative to DMSO (% of DMSO); higher = more cells (less growth inhibition / toxicity)
condition description: concentration: 10 µM; 24 h
Respond with 1 for cell number values of 100 and above, 0 for values below.

Could you tell me if the measured cell number of COC(=O)CNC(=O)C(=O)OC [methyl 2-(2-methoxy-2-oxoethylamino)-2-oxoacetate] reaches 100 or more?
0

Could you tell me if the measured cell number of CN(C)CCOc1ccc(-c2nc(=c3ccc4c(c3)CCC=4N=O)c(=C3C=CNC=C3)[nH]2)cc1 reaches 100 or more?
0

Could you tell me if the measured cell number of NC(CCC(=O)NC(CSN=O)C(=O)NCC(=O)O)C(=O)O (stereo unspecified) [S-Nitrosoglutathione] reaches 100 or more?
1

Could you tell me if the measured cell number of N#Cc1cnc2cnc(NCc3cccnc3)cc2c1Nc1ccc(F)c(Cl)c1 [Tpl2 Kinase Inhibitor] reaches 100 or more?
0

Could you tell me if the measured cell number of c1ccc2c(Oc3nc(Nc4ccc(N5CCOCC5)cc4)c4ncn(C5CCCCC5)c4n3)cccc2c1 reaches 100 or more?
0

Could you tell me if the measured cell number of CCOC(=O)OC(C)OC1=C(C(=O)Nc2ccccn2)N(C)S(=O)(=O)c2ccccc21 (stereo unspecified) [Ampiroxicam] reaches 100 or more?
1

Could you tell me if the measured cell number of NS(=O)(=O)c1cc2c(cc1Cl)NC=NS2(=O)=O [Chlorothiazide] reaches 100 or more?
1

Could you tell me if the measured cell number of COCCOC(=O)C1=C(C)NC(C)=C(C(=O)OCC=Cc2ccccc2)C1c1cccc([N+](=O)[O-])c1 (stereo unspecified) [Cilnidipine] reaches 100 or more?
1

Could you tell me if the measured cell number of C=C1NC2(C(=O)COC(C)=O)C(CC3C4CCC5=CC(=O)C=CC5(C)C4C(O)CC32C)O1 (stereo unspecified) reaches 100 or more?
0

Could you tell me if the measured cell number of COc1ccc(Cl)cc1C(=O)NCCc1ccc(S(=O)(=O)NC(=O)NC2CCCCC2)cc1 [Glyburide] reaches 100 or more?
1

Could you tell me if the measured cell number of CC#CCOC(=O)c1c(C)nc2sc3c(c2c1N)CCC(O)C3 (stereo unspecified) reaches 100 or more?
0

Could you tell me if the measured cell number of CN(C)c1ccnc2sc3c(=O)n(N4CCCCCC4)cnc3c12 reaches 100 or more?
1

* * *

Tested on: TDF
experimental details: cell number relative to DMSO (% of DMSO); higher = more cells (less growth inhibition / toxicity)
condition description: concentration: 10 µM; 24 h
property name: cell number
Reply briefly: the number, and no unit.

I'd like to know its cell number. The compound in question is O=C1CN(/N=C/c2ccc(-c3ccc([N+](=O)[O-])cc3)o2)C([O-])=N1.[Na+]
104

I'd like to know its cell number. The compound in question is Cl.c1ccc(C2CCCC2NC2=NCCCCCCCCCCC2)cc1 (stereo not drawn) [MDL 12,330A hydrochloride]
109

I'd like to know its cell number. The compound in question is O=c1cc(-c2ccccc2)oc2cc(O)ccc12 [7-Hydroxyflavone]
104

I'd like to know its cell number. The compound in question is OCC1OC(n2cnc3c(NCCc4ccccc4)ncnc32)C(O)C1O (stereo not drawn)
113

I'd like to know its cell number. The compound in question is C=C(C)C1CCC2(C(=O)O)CCC3(C)C(CCC4C5(C)CCC(O)C(C)(C)C5CCC43C)C12 (stereo not drawn)
108

I'd like to know its cell number. The compound in question is Nc1nc2ccccc2c2ccccc12
64.8

I'd like to know its cell number. The compound in question is Cc1cccc(C)c1OCC(C)N.Cl (stereo not drawn) [Mexiletene hydrochloride]
104

I'd like to know its cell number. The compound in question is CC[C@H](NC(=O)c1c(O)c(-c2ccccc2)nc2ccccc12)c1ccccc1
98.3
